From: ChEMBL document CHEMBL3988442

Tested on: Mycobacterium tuberculosis
assay_protocol: Cornell - Phenotypic assay to identify agents that inhibit growth of Mycobacterium tuberculosis
Type: functional
Set-up: scale not given: direction of the effect not stated beside the values
test_context: 10 mM as filed; unlikely as a test dose
About 900 (1.7%) of roughly 53,000 compounds showed an effect of 50% or more. The entries come from a sample that favours strong results as a whole.
Please note: Percent Effect exactly at 20% is N. Only values below 20% get Y.

Field: below-cutoff. Rule: recorded Percent Effect strictly less than 20%. Subject: CN(Cc1nnc(C2CC2)n1C)C1CCN(Cc2ccccc2)C1 (centres undefined)
N

Field: below-cutoff. Rule: recorded Percent Effect strictly less than 20%. Subject: COc1nccnc1-c1cccc(-c2ccn(CC3COCCO3)n2)c1 (centres undefined)
Y

Field: below-cutoff. Rule: recorded Percent Effect strictly less than 20%. Subject: CCOCC1CCN(C(=O)C(c2ccccc2F)N(C)C)CC1 (centres undefined)
N

***
Field: below-cutoff. Rule: recorded Percent Effect strictly less than 20%. Subject: NCc1cnn(-c2ccccc2C(=O)NCc2ccccc2Cl)c1
Y

Field: below-cutoff. Rule: recorded Percent Effect strictly less than 20%. Subject: CCN1CCN(c2nsc(-c3cccnc3)c2C#N)CC1
Y

Field: below-cutoff. Rule: recorded Percent Effect strictly less than 20%. Subject: CC(Cn1ccnc1)NCc1csc2c1CCCC2 (centres undefined)
N
